Reported Cmax is given for each of the following molecules.
- Assay procedure: Pharmacokinetic studies, plasma concentration after i.p. injection
- Assay type: in vivo
- Run parameters: male, C57BL/6, mouse, plasma, ip; mice, i.p. 4 mg/kg; observed in 60 min; read-out: maximum concentration in plasma
Where a SMILES comes first, the peptide text is derived from it. [ ]: non-standard residue; d: D form. Pro(trans-4-F) = O=C(O)[C@@H]1C[C@@H](F)CN1; Phe(3-F) = N[C@@H](Cc1cccc(F)c1)C(=O)O; Phg = N[C@H](C(=O)O)c1ccccc1; Thz = O=C(O)[C@@H]1CSCN1
Record the value in ng/mL, omitting the unit from your answer.

Example results:
>  <Molecule>
CC(=O)N[C@@H](CCCCN)C(=O)N1C[C@H](F)C[C@H]1C(=O)N[C@@H](C)C(=O)N[C@H](C(=O)N[C@@H](CCCCN)C(N)=O)[C@@H](C)O [Peptide 51, Ac-K(t)ATK-NH2] (Ac-K[Pro(trans-4-F)]ATK-NH2)

>  <Cmax [ng/mL]>
4620

$$$$
>  <Molecule>
CC(=O)N1CCC[C@H]1C(=O)N[C@@H](Cc1cccc(F)c1)C(=O)N[C@@H](CCCCN)C(=O)N1CCC[C@H]1C(=O)N1CCC[C@H]1C(N)=O [Peptide 10, Ac-P(h)KPP-NH2] (Ac-P[Phe(3-F)]KPP-NH2)

>  <Cmax [ng/mL]>
4520

$$$$
>  <Molecule>
CC(=O)N[C@@H](CCCCN)C(=O)N1C[C@H](F)C[C@H]1C(=O)N[C@@H](C)C(=O)N[C@@H](CC(C)C)C(=O)N[C@@H](CCCCN)C(N)=O [Peptide 60, Ac-K(t)ALK-NH2] (Ac-K[Pro(trans-4-F)]ALK-NH2)

>  <Cmax [ng/mL]>
4280

$$$$

So for CC(=O)N1CSC[C@H]1C(=O)N[C@@H](Cc1cccc(F)c1)C(=O)N[C@@H](CCCCN)C(=O)N1CCC[C@H]1C(=O)N1CCC[C@H]1C(N)=O [Peptide 34, Ac-(r) (h)KPP-NH2] (Ac-[Thz][Phe(3-F)]KPP-NH2) , the logged Cmax turned out to be 5020

So for CC(=O)N[C@@H](CCCCN)C(=O)N1CSC[C@H]1C(=O)N[C@@H](C)C(=O)N[C@H](C(=O)N[C@@H](CCCCN)C(N)=O)[C@@H](C)O [Peptide 49, Ac-K(r)ATK-NH2] (Ac-K[Thz]ATK-NH2) , the logged Cmax turned out to be 4680

So for CC(=O)N1CCC[C@H]1C(=O)N[C@H](C(=O)N[C@@H](CCCCN)C(=O)N1CCC[C@H]1C(=O)N1CCC[C@H]1C(N)=O)c1ccccc1 [Peptide 3, Ac-P(a)KPP-NH2] (Ac-P[Phg]KPP-NH2) , the logged Cmax turned out to be 4020
